# experimentSummary: Toxicity liver stage against HepG2, at 10uM
# Type: cell-based
# Parameters: test concentration 10 uM, cell line HepG2-A16-CD81EGFP
# statedConditions: human, HepG2-A16-CD81EGFP cells; read-out: INHIBITION
Measured cytotoxicity at 10 µM, listed per entry.
Quick reminder: number only, in %, skip the unit.

Here are 5 compounds together with their reported answers.
(Q) Look up and state reported cytotoxicity at 10 µM for Cc1cccc(-n2c(C)cc(=O)[nH]c2=O)c1C
(A) -2

(Q) Look up and state reported cytotoxicity at 10 µM for O=C(NC1CCCC1)[C@@H]1CN(Cc2nccs2)C[C@H]2OCC[C@H]21
(A) 4.91

(Q) Look up and state reported cytotoxicity at 10 µM for COCCN1CCOCC12CCN(C(=O)c1ccoc1)CC2
(A) -84.6

(Q) Look up and state reported cytotoxicity at 10 µM for CCN(CC)c1ccc(NC(=O)N2CCc3sccc3C2)cn1
(A) -5

(Q) Look up and state reported cytotoxicity at 10 µM for O=C(CCc1ccccn1)N1CCc2cc(Cl)cc(Cl)c2C1
(A) -40.9

Further cases:
(Q) Look up and state reported cytotoxicity at 10 µM for CCc1ncncc1C(=O)N1CCCC(n2nc(C)nc2C)C1 (stereo unspecified)
(A) -6.54

(Q) Look up and state reported cytotoxicity at 10 µM for CCOc1ccc(-c2ccnc(C3CC3)n2)cc1C(=O)O
(A) -0.173

(Q) Look up and state reported cytotoxicity at 10 µM for COCCN(C)C1COC2(CCN(Cc3ccccn3)CC2)C1 (stereo unspecified)
(A) -73.4

(Q) Look up and state reported cytotoxicity at 10 µM for CC1=C(CCN2CCCC(O)C2)C(C)(C)CCC1 (stereo unspecified)
(A) 3.43

(Q) Look up and state reported cytotoxicity at 10 µM for CN1CCN(C[C@H]2OC[C@@H]3CCN(C(=O)c4cnccn4)C[C@@H]32)CC1
(A) 12

(Q) Look up and state reported cytotoxicity at 10 µM for Cc1ccccc1CSc1nc(N)cc(N2CCOC(C(N)=O)C2)n1 (stereo unspecified)
(A) 5.27
